Tested on: maltose dehydrogenase (acceptor)
Assay type: biochemical, Staphylococcus sp. B-0875
test parameters: 1.0 mM additive in reaction mixture; no addition = 100
Provide the reported Relative Activity (%) of each item.
Give bare numbers, in %.

Hi! Can you tell me Relative Activity (%) for each of these compounds?
1. [Ca+2].[Cl-].[Cl-]
2. [N-]=[N+]=[N-].[Na+]
3. [Cl-].[Li+]

[A]
1. 101
2. 95
3. 95

Hi! Can you tell me Relative Activity (%) for each of these compounds?
1. [Cl-].[Cl-].[Mg+2]
2. [Cl-].[Cl-].[Co+2]
3. [Ba+2].[Cl-].[Cl-]
4. [Cl][Cu][Cl]

[A]
1. 106
2. 17.9
3. 61.2
4. 0

Hi! Can you tell me Relative Activity (%) for each of these compounds?
1. [Cl][Mn][Cl]
2. [Cl-].[Cl-].[Zn+2]

[A]
[13.4, 4.5]

====

Provide the reported Relative Activity (%) of each item.
Test system: maltose dehydrogenase (acceptor)
test method notes: Effect of surface-active agents on enzyme activity
Assay type: biochemical, Staphylococcus sp. B-0875
test parameters: Concentration 0.1%, in place of 0.2% Triton X-100; no addition = 100
Show the value, then the unit it is measured in.

Answered examples (2):
>  <molecule>
CCCCCCCCCCCCCCCC[N+](C)(C)C.[Cl-] [Cetyl trimethylammonium chloride]

>  <Relative Activity (%)>
94%

$$$$
>  <molecule>
CCCCCCCCCCCCCCCC(=O)N(C)CC(=O)[O-].[Na+] [Sarcosinate PN]

>  <Relative Activity (%)>
114%

$$$$

Hi! Can you tell me Relative Activity (%) for each of these molecules?
1. CCCCCCCCCCCCOS(=O)(=O)O
2. C[C@H](CCC(=O)O)[C@H]1CC[C@H]2[C@@H]3[C@H](O)C[C@@H]4C[C@H](O)CC[C@]4(C)[C@H]3C[C@H](O)[C@]12C [Sodium cholate]

[A]
1: 3.8%; 2: 86%

====

Provide the reported Relative Activity (%) of each item.
System: maltose dehydrogenase (acceptor)
test method notes: Hydrogen acceptor (coenzyme) of maltose dehydrogenase (acceptor) in oxidation of maltose
Assay type: biochemical, Staphylococcus sp. B-0875
Parameters: concentration or dose not given beside the values
test parameters: as hydrogen acceptor; Reaction pH 7.5; substrate maltose
Numbers only, in %.

>  <molecule>
C[n+]1c2ccccc2nc2ccccc21 [PMS, phenazine methosulfate]

>  <study target>
maltose dehydrogenase (acceptor)

>  <unit abbrev>
%

>  <Relative Activity (%)>
100

$$$$
>  <molecule>
CN(C)c1ccc2nc3ccc(=[N+](C)C)cc-3sc2c1 [methylene blue]

>  <study target>
maltose dehydrogenase (acceptor)

>  <unit abbrev>
%

>  <Relative Activity (%)>
0

$$$$
>  <molecule>
NC(=O)c1ccc[n+]([C@@H]2O[C@H](COP(=O)([O-])OP(=O)(O)OC[C@H]3O[C@@H](n4cnc5c(N)ncnc54)[C@H](O)[C@@H]3O)[C@@H](O)[C@H]2O)c1 [NAD, nicotine adenine dinucleotide]

>  <study target>
maltose dehydrogenase (acceptor)

>  <unit abbrev>
%

>  <Relative Activity (%)>
0

$$$$

Consider now this further molecule.
The measured Relative Activity (%) associated with C[N+](C)=c1ccc2nc3c(ccc4ccccc43)oc-2c1 [meldola blue] reads 20

====

Provide the reported Relative Activity (%) of each item.
Tested on: maltose dehydrogenase (acceptor)
test method notes: Hydrogen acceptor (coenzyme) of maltose dehydrogenase (acceptor) in oxidation of maltose
Assay type: biochemical, Staphylococcus sp. B-0875
Parameters: concentration or dose not given beside the values
test parameters: as hydrogen acceptor; Reaction pH 7.5; substrate maltose
Numbers only, in %.

Answered examples (2):
>  <compound>
NC(=O)c1ccc[n+]([C@@H]2O[C@H](COP(=O)([O-])OP(=O)(O)OC[C@H]3O[C@@H](n4cnc5c(N)ncnc54)[C@H](OP(=O)(O)O)[C@@H]3O)[C@@H](O)[C@H]2O)c1 [NADP, nicotine adenine dinucleotide phosphate]

>  <unit abbrev>
%

>  <obs value>
0

$$$$
>  <compound>
COc1cc(-c2ccc(-[n+]3nc(-c4ccccc4)nn3-c3ccc([N+](=O)[O-])cc3)c(OC)c2)ccc1-[n+]1nc(-c2ccccc2)nn1-c1ccc([N+](=O)[O-])cc1

>  <unit abbrev>
%

>  <obs value>
0

$$$$

Consider now this further compound.
The measured Relative Activity (%) associated with COc1cccc2c1nc1ccccc1[n+]2C [MPMS, 1-methoxy-phenazine methosulfate] reads 30

====

System: maltose dehydrogenase (acceptor)
test method notes: Substrate specificity of maltose dehydrogenase (acceptor), PMS/NTB assay at 550 nm
Format: biochemical, Staphylococcus sp. B-0875
test parameters: substrate each 0.1M, 0.1 ml, in place of maltose; 37° C., 10 min
experimental readout: Relative Activity (%)
Give bare numbers, in %.

Hi! Can you tell me Relative Activity (%) for each of these compounds?
1. OC[C@H]1O[C@H](O[C@H]2[C@H](O)[C@@H](O)[C@@H](O[C@H]3[C@H](O)[C@@H](O)[C@@H](O[C@H]4[C@H](O)[C@@H](O)[C@@H](O[C@H]5[C@H](O)[C@@H](O)[C@@H](O[C@H]6[C@H](O)[C@@H](O)[C@@H](O[C@H]7[C@H](O)[C@@H](O)C(O)O[C@@H]7CO)O[C@@H]6CO)O[C@@H]5CO)O[C@@H]4CO)O[C@@H]3CO)O[C@@H]2CO)[C@H](O)[C@@H](O)[C@@H]1O (stereo partly drawn) [maltoheptaose]
2. O=C[C@H](O)[C@@H](O)[C@H](O)CO [xylose]

[A]
22.4
53.7

====

System: serum amylase
test method notes: Serum amylase assay with different hydrogen acceptors (Example 12)
Type: biochemical
test parameters: 0.002% hydrogen acceptor; human serum 20 μl; 37° C.; absorbancy at 550 nm
experimental readout: Relative Amylase Activity
Show the value, then the unit it is measured in.

Answered examples (3):
>  <compound>
C[n+]1c2ccccc2nc2ccccc21 [PMS, phenazine methosulfate]

>  <Relative Amylase Activity>
100%

$$$$
>  <compound>
COc1cccc2c1nc1ccccc1[n+]2C [MPMS, 1-methoxy-phenazine methosulfate]

>  <Relative Amylase Activity>
102%

$$$$
>  <compound>
CC(=O)Nc1cccc2c1nc1ccccc1[n+]2C [1-acetamide-phenazine methosulfate]

>  <Relative Amylase Activity>
103%

$$$$

Consider now this further compound.
Known value: serum amylase Relative Amylase Activity of the compound `C[N+](C)=c1ccc2nc3c(ccc4ccccc43)oc-2c1` equals 97.4%

====

Provide the reported Relative Activity (%) of each item.
Tested on: maltose dehydrogenase (acceptor)
test method notes: Substrate specificity of maltose dehydrogenase (acceptor), PMS/NTB assay at 550 nm
Assay type: biochemical, Staphylococcus sp. B-0875
test parameters: substrate each 0.1M, 0.1 ml, in place of maltose; 37° C., 10 min
Show the value, then the unit it is measured in.

Answered examples (4):
>  <compound>
OC[C@H]1O[C@H](O[C@H]2[C@H](O)[C@@H](O)[C@@H](O[C@H]3[C@H](O)[C@@H](O)C(O)O[C@@H]3CO)O[C@@H]2CO)[C@H](O)[C@@H](O)[C@@H]1O (stereo partly drawn)

>  <Relative Activity (%)>
77.4%

$$$$
>  <compound>
O=C[C@H](O)[C@@H](O)[C@@H](O)[C@H](O)CO

>  <Relative Activity (%)>
56.1%

$$$$
>  <compound>
OC[C@H]1O[C@H](OC[C@H]2O[C@H](O[C@]3(CO)O[C@H](CO)[C@@H](O)[C@@H]3O)[C@H](O)[C@@H](O)[C@@H]2O)[C@H](O)[C@@H](O)[C@H]1O

>  <Relative Activity (%)>
0%

$$$$
>  <compound>
OC[C@H]1O[C@H](O[C@H]2[C@H](O)[C@@H](O)[C@@H](O[C@H]3[C@H](O)[C@@H](O)[C@@H](O[C@H]4[C@H](O)[C@@H](O)C(O)O[C@@H]4CO)O[C@@H]3CO)O[C@@H]2CO)[C@H](O)[C@@H](O)[C@@H]1O (stereo partly drawn)

>  <Relative Activity (%)>
60.3%

$$$$

Hi! Can you tell me Relative Activity (%) for each of these compounds?
1. OC[C@@H](O)[C@@H](O)[C@H](O)[C@@H](O)CO
2. O=C[C@@H](O)[C@@H](O)[C@H](O)[C@H](O)CO

[A]
0%
52.4%

====

Test system: maltose dehydrogenase (acceptor)
test method notes: Substrate specificity of maltose dehydrogenase (acceptor), PMS/NTB assay at 550 nm
Type: biochemical, Staphylococcus sp. B-0875
test parameters: substrate each 0.1M, 0.1 ml, in place of maltose; 37° C., 10 min
Provide the reported Relative Activity (%) of each item.
Answers are plain numbers, in %.

>  <compound>
OC[C@H]1O[C@H](O[C@H]2[C@H](O)[C@@H](O)[C@@H](O[C@H]3[C@H](O)[C@@H](O)[C@@H](O[C@H]4[C@H](O)[C@@H](O)[C@@H](O[C@H]5[C@H](O)[C@@H](O)C(O)O[C@@H]5CO)O[C@@H]4CO)O[C@@H]3CO)O[C@@H]2CO)[C@H](O)[C@@H](O)[C@@H]1O (stereo partly shown) [maltopentaose]

>  <study target>
maltose dehydrogenase (acceptor)

>  <obs value>
36.4

$$$$

Hi! Can you tell me Relative Activity (%) for each of these compounds?
1. OC[C@H]1O[C@H](O[C@H]2[C@H](O)[C@@H](O)[C@H](O)O[C@@H]2CO)[C@H](O)[C@@H](O)[C@@H]1O [maltose]
2. O[C@H]1[C@H](O)[C@@H](O)[C@H](O)[C@@H](O)[C@H]1O [inositol]
3. OC[C@H]1O[C@@H](O[C@H]2[C@H](O)[C@@H](O)C(O)O[C@@H]2CO)[C@H](O)[C@@H](O)[C@H]1O (stereo partly shown) [lactose]
4. CCO [ethanol]
5. OC[C@H]1O[C@@](CO)(O[C@H]2O[C@H](CO)[C@@H](O)[C@H](O)[C@H]2O)[C@@H](O)[C@@H]1O [sucrose]

[A]
100
0
58.2
0
0
